Here is a set of compounds with reported IC50 for Cytochrome P450 2C9 (Homo sapiens, UniProt P11712), compiled from the literature.

Notebook: pull reported IC50 for Cytochrome P450 2C9 (Homo sapiens, UniProt P11712), entry C[C@H](Oc1ccc(S(C)(=O)=O)cc1C(=O)N1Cc2ccc(Cl)cc2C1)C(F)(F)F
> 38 µM

What do you have for O=C(Cn1ccnc1[N+](=O)[O-])NCc1ccccc1 ?
> 100 µM

What do you have for Cc1ccc2c(c1)C(=O)N(c1ccc(NC(=O)c3occc3C)c(F)c1)C2=O ?
> 30 µM

What do you have for CC1(C)CC(c2ccc(OC3CCN(C4CCC4)CC3)cc2)=NNC1=O ?
> 30 µM

What do you have for O=C(NC1CC(F)(F)C1)c1nsc2cc(Nc3n[nH]c4cccnc34)ccc12 ?
> 30 µM

What do you have for Nc1nc2ccc(C(=O)NCCc3cccs3)cc2s1 ?
> 25 µM

What do you have for COc1cc2ncnc(Nc3ccc(F)c(Cl)c3)c2cc1NC(=O)/C(F)=C/CN1CCCCC1 ?
> 10 µM

What do you have for COCCCS(=O)(=O)c1ccc(-c2ccc(CCN3CCC[C@H]3C)cc2)cc1 ?
> 40 µM
